FYI, the data here is from PubChem BioAssay (Tox21).

- TEST_SYSTEM: Nuclear receptor subfamily 1 group I member 2 (Homo sapiens) (UniProt O75469)
- PROTOCOL_DETAILS: Human pregnane X receptor (PXR) activation by small molecules, qHTS assay (AID 1346985); note: nearly all actives have a fitted effect of over 40% in size; for activation: % is set by controls: 0 for no effect and ±100 for the full control effect
- CONDITION_DETAILS: DPX-2 HepG2 CYP3A4-luciferase, 24 h; series mostly up to 38.3 µM
Records with an inconclusive call do not appear. Active and inactive are the calls of the source. Calls come from the whole dose curve; as a rule, active = well fitted activation curve with a large enough effect in the repeat runs; inconclusive = weak or mixed curves; inactive = flat fitted curve, though single readings scatter.
Outcomes: 1 (active), -1 (inactive)

compound=O=C1CN=C(c2ccccc2)c2cc([N+](=O)[O-])ccc2N1 category=-1
compound=CN(C)CCc1ccc(O)cc1 category=-1
compound="NC1=NC(=O)C(c2ccccc2)O1 (stereo not drawn)" category=-1
compound=CCC1(c2ccccc2)C(=O)NC(=O)NC1=O category=-1
compound="CN1CCC(O)(c2ccc(F)cc2)C(C(=O)c2ccc(F)cc2)C1 (stereo not drawn)" category=-1
compound=OC(c1ccccc1)(c1ccccc1)C1CCNCC1 category=-1
compound=NC(=O)c1cc([N+](=O)[O-])cc([N+](=O)[O-])c1 category=-1
compound=CC(C)(C)OC(=O)c1ncn2c1[C@@H]1CCCN1C(=O)c1c(Br)cccc1-2 category=1
compound=O=C(O)c1ccc2[nH]cc(CCCCN3CC=C(c4ccccc4)CC3)c2c1 category=-1
compound=CC(=O)[C@H]1CC[C@H]2[C@@H]3CC[C@H]4C[C@H](O)CC[C@]4(C)[C@H]3C(=O)C[C@]12C category=-1
compound=CN1C(=S)CN=C(c2ccccc2)c2cc(Cl)ccc21 category=1
compound=O=C(CCCN1CCC(n2c(=O)[nH]c3ccccc32)CC1)c1ccc(F)cc1 category=-1
compound=CCS(=O)(=O)C(C)(C)S(=O)(=O)CC category=-1
compound="C[C@@H]1CN(C2CCC(C#N)(c3ccc(F)cc3)CC2)CC[C@]1(C(=O)O)c1ccccc1 (stereo partly drawn)" category=-1
compound=O=C1c2ccccc2C(=O)c2ccccc21 category=-1
compound="CCN(CC)C(C)C(=O)c1ccccc1 (stereo not drawn)" category=-1
compound=C#C[C@]1(O)C=C[C@H]2[C@@H]3CCC4=CC(=O)CC[C@@H]4[C@H]3CC[C@@]21CC category=-1
compound="COC(=O)C(c1ccccc1)C1CCCCN1 (stereo not drawn)" category=-1

---

- TEST_SYSTEM: Cytochrome P450 2C9 (Homo sapiens)
- PROTOCOL_DETAILS: Cytochrome P450 Family 2 Subfamily C Member 9 (CYP2C9) small molecule antagonists: luciferase reporter qHTS assay (AID 1671198); note: nearly all actives have a fitted effect of over 50% in size
- CONDITION_DETAILS: P450-Glo CYP2C9 enzyme assay, luciferin luminescence; series mostly up to 115 µM
Records with an inconclusive call do not appear. Calls of active or inactive are those of the source. Calls come from the whole dose curve; as a rule, active = well fitted inhibition curve with a large enough effect in the repeat runs; inconclusive = weak or mixed curves; inactive = no such curve, though single readings can be large or run the other way.
Outcomes: active, inactive

molecule="CC(C)CC(N(C)C)C1(c2ccc(Cl)cc2)CCC1 (stereo unspecified)" category=inactive
molecule="O=C1OC(=O)C2C1C1(Cl)C(Cl)=C(Cl)C2(Cl)C1(Cl)Cl (stereo unspecified)" category=inactive
molecule=Cc1ncsc1CCCl category=inactive
molecule="COc1ccc2c(c1OC)CN1CCc3cc4c(cc3C1C2)OCO4 (stereo unspecified)" category=active
molecule=CSc1nc(N=[N+]=[N-])nc(NC(C)C)n1 category=active
molecule=NC(=O)c1cc([N+](=O)[O-])cc([N+](=O)[O-])c1 category=inactive
molecule=CCOP(=S)(OCC)Oc1cc(-c2ccccc2)on1 category=active
molecule=CNNC category=inactive
molecule=Nc1c(Br)cc([N+](=O)[O-])cc1[N+](=O)[O-] category=inactive
molecule=CNC(=O)O/N=C(\C)SC category=inactive
molecule=N#CCCC#N category=inactive
molecule=COc1cc2c(cc1OC)[C@@]13CCN4CC5=CCO[C@H]6CC(=O)N2[C@H]1[C@H]6[C@H]5C[C@H]43 category=inactive
molecule="NC1=NC(=O)C(c2ccccc2)O1 (stereo unspecified)" category=inactive
molecule="CC1CCC(=O)O1 (stereo unspecified)" category=inactive
molecule=CNC(=O)Oc1ccc(N(C)C)c(C)c1 category=inactive
molecule=CCc1cc2c(s1)-n1c(C)nnc1CN=C2c1ccccc1Cl category=inactive
molecule=CN1C(=S)CN=C(c2ccccc2)c2cc(Cl)ccc21 category=active
molecule=C1CCC(C2CCCCC2)CC1 category=inactive
molecule=Cc1cc(C)c(C(=O)P(=O)(C(=O)c2c(C)cc(C)cc2C)c2ccccc2)c(C)c1 category=active
molecule=CCC1(c2ccccc2)C(=O)NC(=O)NC1=O category=inactive
molecule=CCCCOC(=O)[C@@H](C)Oc1ccc(Oc2ccc(C#N)cc2F)cc1 category=active
molecule=Cc1nc(N)nc(N)n1 category=inactive
molecule=COc1ncc(F)c2nc(S(=O)(=O)Nc3c(F)cccc3F)nn12 category=active
molecule=COc1cc(OC)nc(NC(=O)NS(=O)(=O)c2ncccc2C(=O)N(C)C)n1 category=inactive
molecule="CC(Oc1ccc(Oc2ncc(C(F)(F)F)cc2Cl)cc1)C(=O)O (stereo unspecified)" category=active
molecule=CC(C)(C)OC(=O)c1ncn2c1[C@@H]1CCCN1C(=O)c1c(Br)cccc1-2 category=active
molecule=Nc1cc2c3c(c1)C(c1ccccc1)=N[C@@H](NC(=O)c1cccnc1)C(=O)N3CC2 category=active
molecule=CCC#N category=inactive
molecule=O=P(O)(Oc1ccccc1)Oc1ccccc1 category=active
molecule="CC(C1CC1)C(O)(Cn1cncn1)c1ccc(Cl)cc1 (stereo unspecified)" category=active
molecule=ClC(Cl)Br category=inactive
molecule=CCOP(=O)(N=C1SCCS1)OCC category=inactive
molecule="O=C1OC(CCN2CCCCC2)OC1(c1ccccc1)c1ccccc1 (stereo unspecified)" category=active
molecule=C=CCC1=C(C)[C@@H](OC(=O)[C@@H]2[C@@H](C=C(C)C)C2(C)C)CC1=O category=active
molecule=OC(c1ccccc1)(c1ccccc1)C1CCNCC1 category=inactive
molecule=NC(=O)O category=inactive
molecule=Nc1cc(Cl)ccc1O category=active
molecule=CCCSC(=O)N(CCC)CCC category=inactive
molecule=CCN(CC)c1nc(C)cc(OP(=S)(OC)OC)n1 category=active
molecule="OC(Cn1cncn1)(c1ccc(F)cc1)c1ccccc1F (stereo unspecified)" category=active
molecule="CCCSP(=O)(OCC)Oc1ccc(Br)cc1Cl (stereo unspecified)" category=active

---

Each entry below carries its recorded max response.
- PROTOCOL_DETAILS: qHTS RealTime-Glo MT Cell Viability Assay in HEK293 cells - 40 hour (AID 1224874); note: % is set by controls: 0 for no effect and ±100 for the full control effect; nearly all actives have a fitted effect of over 50% in size
- CONDITION_DETAILS: RealTime-Glo luminescence; active compounds read low
Records with an inconclusive call do not appear.
READOUT_TYPE: max response (%)

molecule=CCNc1nc(NC(C)C)nc(OC)n1 obs_value=-7.59
molecule=COC(=O)c1ccccc1S(=O)(=O)NC(=O)Nc1nc(C)cc(C)n1 obs_value=7.64
molecule="CC(C)(C)NCC(O)c1cc(Cl)c(N)c(Cl)c1 (stereo not drawn)" obs_value=2.03
molecule="O=C1CN2CCOC2(c2ccccc2Cl)c2cc(Cl)ccc2N1 (stereo not drawn)" obs_value=-7.26
molecule=COC(=O)COc1ccc(Cl)cc1Cl obs_value=0.13
molecule="O=CNC(N1CCN(C(NC=O)C(Cl)(Cl)Cl)CC1)C(Cl)(Cl)Cl (stereo not drawn)" obs_value=-2.73
molecule=CCSC(=O)N(CC)C1CCCCC1 obs_value=-0.642
molecule=CCCCOC(=O)c1ccccc1C(=O)O obs_value=1.78
molecule=COP(=S)(OC)Oc1c(Cl)cc(C)cc1Cl obs_value=0.348
molecule=O=[N+]([O-])c1cccc(O)c1 obs_value=4.13
molecule="CCC(C)n1c(=O)[nH]c(C)c(Br)c1=O (stereo not drawn)" obs_value=0.435
molecule=CNC(=O)N(C)c1nc2ccccc2s1 obs_value=-18.7
molecule=O=C(Cc1ccccc1)OCc1ccccc1 obs_value=-18.6
molecule=CC1(C)C(=O)NC(=O)NC1=O obs_value=-10.9
molecule=CCOC(=O)C1(c2ccccc2)CCN(CCc2ccc(N)cc2)CC1 obs_value=-22.8
molecule=O=C1c2ccccc2C(=O)c2ccccc21 obs_value=18.9
molecule="CC(C)NCC(O)c1ccc(N)c(C#N)c1 (stereo not drawn)" obs_value=2.86
molecule=O=[N+]([O-])c1cccc2cccnc12 obs_value=-7.09
molecule="NC1=NC(=O)C(c2ccccc2)O1 (stereo not drawn)" obs_value=1.11
molecule=COc1cc(OC)nc(Sc2cccc(Cl)c2C(=O)O)n1 obs_value=16.2
molecule="O=C1OC(=O)C2C1C1(Cl)C(Cl)=C(Cl)C2(Cl)C1(Cl)Cl (stereo not drawn)" obs_value=-0.525
molecule=Nc1cc2c3c(c1)C(c1ccccc1)=N[C@@H](NC(=O)c1cccnc1)C(=O)N3CC2 obs_value=-6.57
molecule=CNC(=O)Oc1cccc(C(C)C)c1 obs_value=-3.66
molecule=CN(N=O)C(N)=O obs_value=10.1
molecule=CCS(=O)(=O)C(C)(C)S(=O)(=O)CC obs_value=3.47
molecule=ClCC(Cl)(Cl)Cl obs_value=-0.0203
molecule="CC(C(O)c1ccccc1)N(C)C/C=C/c1ccccc1 (stereo not drawn)" obs_value=-19.6
molecule=O=C(Nc1ccccc1)c1ccccc1I obs_value=-14.8
